B1: LINE1-mini (parent)
chain: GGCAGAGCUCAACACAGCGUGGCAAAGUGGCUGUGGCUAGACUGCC

Variants of: B1
Test: self-cleavage, relative activity (ratio to wild type); higher = more cleavage; in vitro, sequencing; the parent is a self-cleaving ribozyme
Where self-cleavage equals or exceeds 0.2, the correct label is 1 (yes); where it does not, the label is 0 (no).

>>> print(df.to_string())
    mutation_notation    label
 0          C18U U38A  1 (yes)
 1          G17C A26U  1 (yes)
 2          A11G C23G   0 (no)
 3           G2A A41C   0 (no)
 4           C3G C15A   0 (no)
 5          C15U C46G  1 (yes)
 6          A26G G36C   0 (no)
 7          C10G C45A   0 (no)
 8          G29U C37U   0 (no)
 9          A24C C45G   0 (no)
10          A14U G27U  1 (yes)
11          C23U A39G   0 (no)
12           G7A G19A  1 (yes)
13          A14U A41G   0 (no)
14          A14U A26U  1 (yes)
15          A11C C31A   0 (no)
16          A14G G44C   0 (no)
17           U9A C13G  1 (yes)
18           A4C U38A   0 (no)
19          G27C C42G   0 (no)
20          C13U U43G  1 (yes)
21            G7A U9C   0 (no)
